Protein target, amino acids: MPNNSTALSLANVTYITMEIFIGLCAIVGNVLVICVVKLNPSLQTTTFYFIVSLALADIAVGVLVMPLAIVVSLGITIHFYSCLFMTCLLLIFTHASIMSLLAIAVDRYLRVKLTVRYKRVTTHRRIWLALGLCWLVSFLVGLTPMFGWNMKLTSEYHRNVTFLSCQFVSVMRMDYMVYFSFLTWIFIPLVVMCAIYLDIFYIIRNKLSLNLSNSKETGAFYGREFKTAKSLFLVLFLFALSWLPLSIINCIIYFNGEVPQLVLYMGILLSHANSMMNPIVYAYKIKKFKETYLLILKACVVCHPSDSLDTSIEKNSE
Reported Ki on the protein given by its sequence for assorted compounds, compiled from publications.
assayReadout: Ki (nM)

Consider the reported Ki for these compounds:
>  <compound>
COc1cc(O)c2c(c1)O[C@H](c1ccc(O)cc1)CC2=O

>  <system>
the protein given by its sequence

>  <Ki [nM]>
3390

$$$$
>  <compound>
Cc1cc(-c2sc(NC(=O)N3CCOC(C(N)=O)C3)nc2-c2cccc(C#N)c2)cc(C)n1 (stereo not given)

>  <system>
the protein given by its sequence

>  <Ki [nM]>
200

$$$$
>  <compound>
CCCCC#Cc1nc(N)c2ncn([C@@H]3O[C@H](C(=O)NCC)[C@H](O)C3O)c2n1 (stereo not given in full)

>  <system>
the protein given by its sequence

>  <Ki [nM]>
2.4

$$$$

[I] Nc1ncn([C@@H]2O[C@H](CO)[C@@H](O)[C@H]2O)c(=O)c1Cl
[II] Cc1ccccc1CNc1ncnc2c1ncn2[C@@H]1O[C@H](C(=O)NCCO)[C@@H](O)[C@H]1O
[Q] Two entries are listed, I and II . Which one carries the higher Ki? // output: label of the selected item
[A] II
(II: 1640 nM, I: 557 nM)

[P] CCNC(=O)C1OC(n2cnc3c(N)nc(C#CCCCC#N)nc32)C(O)C1O (stereo not given)
[Q] Cc1cc(-c2sc(NC(=O)N3CC4(CNC(=O)C4)C3)nc2-c2cccc(C#N)c2)cc(C)n1
[R] CNC(=O)[C@H]1O[C@@H](n2cnc3c(NCc4ccc(N)cc4)ncnc32)[C@H](O)[C@@H]1O
[S] COc1cc(OC)c2c(=O)c(OC)c(-c3ccccc3)oc2c1
[T] Cc1cc(-c2sc(NC(=O)N3CC[C@@H]3CO)nc2-c2cccc(C#N)c2)cc(C)n1
[Q] Rank the items in ascending order with respect to Ki. I would appreciate it if you listed the labels in the requested order.
[A] P, R, T, Q, S

[P] CCNC(=O)C1OC(n2cnc3c(N)nc(C#CCOc4ccccc4)nc32)C(O)C1O (stereo not given)
[Q] OC[C@H]1O[C@@H](n2cnc3c(NC4CCCC4)ncnc32)[C@H](O)[C@@H]1O
[R] COc1ccc2c(c1)C(=O)C(O)C(C#Cc1ccccc1)O2 (stereo not given)
[Q] Please rank these compounds by Ki in descending order. I would appreciate it if you listed the labels in the requested order.
[A] R, Q, P
(R: 8130 nM, Q: 43 nM, P: 14 nM)

---

Reported Ki on the protein given by its sequence for assorted compounds, compiled from publications.
Protein target, amino acids: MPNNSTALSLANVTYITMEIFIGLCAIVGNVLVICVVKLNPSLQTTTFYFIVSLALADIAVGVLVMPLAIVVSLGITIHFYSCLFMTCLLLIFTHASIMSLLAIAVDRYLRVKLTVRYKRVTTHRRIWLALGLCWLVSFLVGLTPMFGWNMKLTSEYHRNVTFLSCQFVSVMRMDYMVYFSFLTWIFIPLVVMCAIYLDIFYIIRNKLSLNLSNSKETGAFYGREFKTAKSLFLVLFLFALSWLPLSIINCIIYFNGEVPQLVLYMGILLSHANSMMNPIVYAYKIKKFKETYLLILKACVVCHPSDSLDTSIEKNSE
assayReadout: Ki (nM)

Consider the reported Ki for these compounds:
>  <compound>
COc1cc2oc(-c3ccc(O)cc3)cc(=O)c2c(O)c1OC

>  <endpointResult>
3160

$$$$
>  <compound>
CCNC(=O)C1OC(n2cnc3c(N)nc(C#CCC(C)O)nc32)C(O)C1O (stereo not drawn)

>  <endpointResult>
4.1

$$$$

[1] CCNC(=O)[C@H]1O[C@@H](n2cnc3c(N=C(N)N)ncnc32)[C@H](O)[C@@H]1O
[2] Cc1ccc(-c2oc3ccc(Cl)cc3c(=O)c2Cl)c(C(C)C)c1
[3] Cc1cn([C@@H]2O[C@H](CO)[C@@H](O)[C@H]2O)c(=O)nc1N
[4] Cc1cc(-c2sc(NC(=O)N3CCC4(CC3)CNC(=O)N4C)nc2-c2cccc(C#N)c2)cc(C)n1
[5] Fc1ccccc1-c1nc(Nc2cccnc2)nnc1-c1ccnc(C(F)(F)F)c1
[Q] Please rank these compounds by Ki in descending order. I would appreciate it if you listed the labels in the requested order.
[A] 3, 5, 2, 4, 1
(3: 8020 nM, 5: 1020 nM, 2: 562 nM, 4: 318 nM, 1: 5.1 nM)
